Biological target: Acetylcholinesterase (Bos taurus)
Sequence (P23795 whole entry): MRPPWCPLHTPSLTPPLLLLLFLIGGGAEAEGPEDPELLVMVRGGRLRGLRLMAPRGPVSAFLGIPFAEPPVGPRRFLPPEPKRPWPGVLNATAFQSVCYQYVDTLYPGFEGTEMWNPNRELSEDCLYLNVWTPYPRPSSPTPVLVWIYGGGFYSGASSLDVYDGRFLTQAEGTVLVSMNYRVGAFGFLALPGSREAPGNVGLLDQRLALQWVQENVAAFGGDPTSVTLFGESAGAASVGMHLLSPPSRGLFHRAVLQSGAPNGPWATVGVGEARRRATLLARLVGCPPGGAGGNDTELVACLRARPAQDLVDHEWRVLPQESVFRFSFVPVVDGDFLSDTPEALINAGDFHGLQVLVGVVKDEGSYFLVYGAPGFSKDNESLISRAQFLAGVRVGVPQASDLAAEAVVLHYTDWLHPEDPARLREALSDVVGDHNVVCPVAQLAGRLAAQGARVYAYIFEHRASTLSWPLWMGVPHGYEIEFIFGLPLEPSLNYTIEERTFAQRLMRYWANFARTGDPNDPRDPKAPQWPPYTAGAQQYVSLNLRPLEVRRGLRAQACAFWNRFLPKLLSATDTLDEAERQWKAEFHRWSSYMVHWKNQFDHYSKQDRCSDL
property.measured: pKi
A value of pKi is the negative decimal logarithm of a concentration given in moles per litre.

Entry under test: COc1cc2cc(NC(=O)[C@H]3CCC[C@@H](NCc4ccccc4)C3)c(=O)oc2cc1OC (relative stereo) . Its pKi was 8.07

----------
Quick record of pIC50 values for Acetylcholinesterase (Bos taurus, UniProt P23795).
Please treat pIC50 as minus the base-10 logarithm of the molar concentration.

# example entries with known answers
COc1cc2cc(C(=O)NC3CCN(Cc4ccccc4)CC3)c(=O)oc2cc1OC 7.55
COc1cc2cc(C(=O)NCCN(C)Cc3ccccc3)c(=O)oc2cc1OC 5.05
COc1ccc2cc(OC3CCN(Cc4ccccc4)CC3)c(=O)oc2c1 4.92
CN(CCC(=O)Nc1cc2ccccc2oc1=O)Cc1ccccc1 4.18
COc1cc2cc(OCC3CCN(Cc4ccccc4)CC3)c(=O)oc2cc1OC 7.68

Continue with the next compound.
The compound COc1cc2cc(NC(=O)CCCN(C)Cc3ccccc3)c(=O)oc2cc1OC , tested on Acetylcholinesterase (Bos taurus, UniProt P23795), showed pIC50 of 6.48

----------
// Acetylcholinesterase (Bos taurus) IC50 records
Number in µM, nothing else.

Consider the following illustrative entries.
compound	reported.result
COc1cc2cc(C(=O)OC3CCN(Cc4ccccc4)CC3)c(=O)oc2cc1OC	0.014
O=c1oc2ccccc2cc1OC1CCN(Cc2ccccc2)CC1	4.5
CN(CCCOc1cc2ccccc2oc1=O)Cc1ccccc1	4.5
COc1cc2cc(C(=O)NCCCN(C)Cc3ccccc3)c(=O)oc2cc1OC	0.086

Proceeding to the next compound to report its IC50.
According to the records, this compound COc1cc2cc(C(=O)NCCCCN(C)Cc3ccccc3)c(=O)oc2cc1OC displays IC50 of 0.021

----------
molecular target: Cholinesterase (Equus caballus)
compounds and their reported pIC50
Scale explanation: pIC50 corresponds to minus log10 of a concentration expressed in moles per litre.

The examples below pair each entry with its known result.
compound	reported.result
COc1cc2cc(OCC3CCN(Cc4ccccc4)CC3)c(=O)oc2cc1OC	5.41
O=c1oc2ccccc2cc1OC1CCN(Cc2ccccc2)CC1	5.10
COc1cc2cc(C(=O)OCC3CCN(Cc4ccccc4)CC3)c(=O)oc2cc1OC	5.33
CN(CCCOc1cc2ccccc2oc1=O)Cc1ccccc1	5.40

Observed pIC50, Cholinesterase (Equus caballus), COc1cc2cc(NC(=O)[C@H]3CCC[C@@H](NCc4ccccc4)C3)c(=O)oc2cc1OC (relative stereo) : 4.48

----------
System: Acetylcholinesterase (Bos taurus, UniProt P23795) | Read-out: IC50
Just the number please, in nM, no unit attached.

These recorded examples may help you get a feel for the data.
COc1cc2cc(C(=O)OCC3CCN(Cc4ccccc4)CC3)c(=O)oc2cc1OC 73
COc1cc2cc(OC3CCN(Cc4ccccc4)CC3)c(=O)oc2cc1OC 1500

The record that follows has no IC50 shown yet.
// recorded IC50 for COc1cc2cc(C(=O)OCCCN(C)Cc3ccccc3)c(=O)oc2cc1OC : 111

----------
target: UniProtKB P81908; assay: Inhibition of equine butyrylcholinesterase using butyrylthiocholine as substrate at 10 uM incubated for 20 mins prior to substrate addition measured after 3 mins by Ellman's method
Param threshold (20%) applies to inhibition; output Satisfied when value >= threshold, Not satisfied when value < threshold.

Solved entries:
COc1ccc2cc(OC3CCN(Cc4ccccc4)CC3)c(=O)oc2c1 Satisfied
COc1cc2cc(NC(=O)CCN(C)Cc3ccccc3)c(=O)oc2cc1OC Not satisfied

Reported inhibition at or above 20%? COc1cc2cc(C(=O)OCCCN(C)Cc3ccccc3)c(=O)oc2cc1OC
Satisfied

----------
Reported values of inhibition for individual entries
molecular target: Cholinesterase (Equus caballus) (UniProt P81908); experiment: Inhibition of equine butyrylcholinesterase using butyrylthiocholine as substrate at 10 uM incubated for 20 mins prior to substrate addition measured after 3 mins by Ellman's method
Sequence (P81908 whole entry): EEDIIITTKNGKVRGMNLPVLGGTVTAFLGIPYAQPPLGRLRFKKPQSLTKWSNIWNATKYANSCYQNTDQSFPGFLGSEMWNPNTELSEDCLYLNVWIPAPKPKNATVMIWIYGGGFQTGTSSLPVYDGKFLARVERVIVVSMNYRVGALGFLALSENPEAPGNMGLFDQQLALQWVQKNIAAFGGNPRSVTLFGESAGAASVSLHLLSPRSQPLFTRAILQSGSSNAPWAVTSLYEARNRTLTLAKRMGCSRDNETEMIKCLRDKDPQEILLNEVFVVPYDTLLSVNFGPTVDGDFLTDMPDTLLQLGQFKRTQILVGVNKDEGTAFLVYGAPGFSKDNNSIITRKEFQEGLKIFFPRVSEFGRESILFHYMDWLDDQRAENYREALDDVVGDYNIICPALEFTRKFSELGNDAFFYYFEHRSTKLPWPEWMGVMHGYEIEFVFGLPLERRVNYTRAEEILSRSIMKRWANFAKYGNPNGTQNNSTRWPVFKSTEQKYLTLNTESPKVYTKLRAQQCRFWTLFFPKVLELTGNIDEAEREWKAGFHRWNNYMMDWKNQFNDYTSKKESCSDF
Give just the number in %; leave the unit off.

Check out these entries, answers already filled in.
COc1cc2cc(NC(=O)CN(C)Cc3ccccc3)c(=O)oc2cc1OC 11
COc1cc2cc(NC(=O)CCCN(C)Cc3ccccc3)c(=O)oc2cc1OC 43
COc1cc2cc(C(=O)NCCN(C)Cc3ccccc3)c(=O)oc2cc1OC 15

In the following, a different compound is considered.
Value (inhibition, Cholinesterase (Equus caballus) (UniProt P81908)) for record COc1ccc2oc(=O)c(OC3CCN(Cc4ccccc4)CC3)cc2c1 = 34

----------
biological target: UniProtKB P23795
pIC50: −log10 of the molar value.
# label = Yes if pIC50 >= 5 else No

molecule	category.label
COc1cc2cc(NC(=O)CN(C)Cc3ccccc3)c(=O)oc2cc1OC	No
COc1cc2cc(C(=O)N3CCN(Cc4ccccc4)CC3)c(=O)oc2cc1OC	Yes

Exam item: decide whether the reported pIC50 for COc1cc2cc(NC(=O)[C@H]3CCC[C@@H](NCc4ccccc4)C3)c(=O)oc2cc1OC (relative stereo) is at least 5.
Yes

Is the recorded value of pIC50 equal to or greater than 5 for this molecule? COc1cc2cc(NC(=O)CCN(C)Cc3ccccc3)c(=O)oc2cc1OC
No

----------
target: Cholinesterase (Equus caballus); experiment: Inhibition of equine butyrylcholinesterase using butyrylthiocholine as substrate at 10 uM incubated for 20 mins prior to substrate addition measured after 3 mins by Ellman's method
property.measured: inhibition (%)
Give the value, in units of %, as a plain number.

COc1cc2cc(C(=O)NCCCCN(C)Cc3ccccc3)c(=O)oc2cc1OC 23

Consider COc1cc2cc(C(=O)OC3CCN(Cc4ccccc4)CC3)c(=O)oc2cc1OC . Its measured inhibition is 12

----------
target: Cholinesterase (Equus caballus) (UniProt P81908); test: Inhibition of equine butyrylcholinesterase using butyrylthiocholine as substrate at 10 uM incubated for 20 mins prior to substrate addition measured after 3 mins by Ellman's method
Label scheme for inhibition: lower than 10% is condition not met, 10% and above is condition met.

Please review the entries below; each comes with its answer.
CN(CCC(=O)Nc1cc2ccccc2oc1=O)Cc1ccccc1 condition not met
COc1cc2cc(C(=O)NC3CCN(Cc4ccccc4)CC3)c(=O)oc2cc1OC condition met
COc1cc2cc(C(=O)N3CCN(Cc4ccccc4)CC3)c(=O)oc2cc1OC condition met
COc1cc2cc(OC3CCN(Cc4ccccc4)CC3)c(=O)oc2cc1OC condition met

Next compound, please.
Exam item: decide whether the reported inhibition for COc1cc2cc(C(=O)NCCCN(C)Cc3ccccc3)c(=O)oc2cc1OC is at least 10%.
condition met
